Values from patent US20250034116A1

Experiment: Pharmacokinetic (PK) experiment, oral administration in rats
Type: in vivo, Male SD rats
Conditions: male, SD, rat, plasma, 20 mg/kg
Rule: yes for Tmax not less than 2 h, no for anything less.

Task: Reported Tmax at or above 2 h? O=C1CCCN1CC1CCN(c2ccc(-c3cn[nH]c3)cc2)CC1 [Compound 1]
Result: no

Task: Follow-up item: O=C(C1CCCC1)N1CCC(c2ccc(-c3cn[nH]c3)c(F)c2F)CC1 [Compound 98]
Result: yes

Task: Follow-up item: O=C(N1CC=C(c2ccc(-c3cn[nH]c3)c(F)c2F)CC1)N1CCCC1 [Compound 91]
Result: yes

Task: Follow-up item: O=C(C1CCN(c2ccc(-c3cn[nH]c3)cc2)CC1)N1Cc2ccccc2C1 [Compound 66]
Result: yes

Task: Follow-up item: O=S1(=O)CCCCN1CC1CCN(c2ccc(-c3cn[nH]c3)cc2F)CC1 [Compound 163]
Result: no
